system: Trypanosoma cruzi; experiment: Antitrypanosomal activity against Trypanosoma cruzi trypomastigotes infected in human HeLa cells assessed as number of amastigotes per infected cell at 1 ug/mL after 4 days by HeLa cell-infection assay; format: functional
EXPERIMENTAL ENDPOINT: Activity
Numbers only.

Worked examples follow.
compound=C=C(C)[C@@H]1C=C[C@](C)(OO)CC1 experimental_endpoint=Activity reported=19.1
compound="CC(C)C12C=CC(C)(CC1)OO2 (stereo not given)" experimental_endpoint=Activity reported=22.8
compound=Oc1ncnc2[nH]ncc12 experimental_endpoint=Activity reported=10.9
compound=C=C(C)[C@H]1CCC(=C)[C@H](OO)C1 experimental_endpoint=Activity reported=18.6

Note Activity for the compound shown: `C=C(C)[C@@H]1C=C[C@@](C)(OO)CC1`
12
